All figures here come from patent US20250326748A1.

Reported IC50 by item:
# Test system: HTT mRNA
# procedure-text: Splicing RT-qPCR assay, HTT canonical (CJ) and alternative (AJ) junction mRNA
# Assay type: cell-based, human
# stated-conditions: Homo sapiens, canonical junction mRNA, qPCR panel; read-out: HTT CJ (decrease in CJ mRNA levels, IC50)

| compound | target-entity | IC50 |
| --- | --- | --- |
| C[C@H]1CN(c2cnc3nc(-c4cc(F)c5nn(C)cc5c4)cc(Cl)c3c2)C[C@H](C)N1 | HTT mRNA | 100 to 1000 nM |
| C[C@@H]1CN(c2cnc3nc(-c4cc5cn(C)nc5c(F)c4O)cc(Cl)c3c2)C[C@H](C)N1 | HTT mRNA | 100 to 1000 nM |
| C[C@@H]1CN(c2cnc3nc(-c4cc(F)c5nn(C)cc5c4)cc(Cl)c3c2)C[C@@H](C)N1 | HTT mRNA | 1000 to 10000 nM |
| CNC1CCN(c2cnc3nc(-c4cc5cn(C)nc5c(C)c4O)ccc3c2)C1 (stereo not drawn) | HTT mRNA | 100 to 1000 nM |
| Cn1cc2cc(-c3ccc4cc(N5CC[C@@H](NCC6CC6)C5)cnc4n3)c(O)cc2n1 | HTT mRNA | 100 to 1000 nM |

Could you now consider this next compound?
Look at this compound and give its reported IC50. Cc1c(O)c(-c2cc(Cl)c3cc(N(C)[C@@H]4CCNC4)cnc3n2)cc2cn(C)nc12.Cl
100 to 1000 nM
